Data provenance is PubChem BioAssay (NCI).

tested on: OVCAR-8 ovarian; test: NCI tumour cell line growth inhibition, 48 h
Kindly supply the reported log10(TGI) values for the records listed here.
A difference of one corresponds to tenfold TGI; all values are log10 with TGI in µM.

Observe how each entry below is paired with its result.
Cc1nc2cccc(NCc3ccc(C(=O)NO)cc3)c2c(=O)n1-c1ccccc1; 0.57
CC[N+](CC)(CC)CCCn1c2c(c3ccccc3c1=O)C(=O)c1ccccc1-2; 1.36
CCN(CC)CCS(=O)c1c2cc(OC)ccc2nc2ccc(OC)cc12 (stereo not given); 1.32
CC1C[C@]2(C)C(=S)Nc3ccccc3[C@@H]2Nc2ccccc21 (stereo not given in full); 1.47

Enquiry: Give log10(TGI) for the following compound: Cc1cc(S(=O)(=O)Nc2nnc(-c3ccccc3)c(-c3ccccc3)n2)c(SCc2ccccc2)cc1Cl
Return: 1.95
